# METHOD_NOTES: clinical
# PARTICULARS: human, in vivo
REPORTED_METRIC: concentration at 15 min

Record CNC[C@H](O)c1cccc(O)c1 . Reported concentration at 15 min: ~1 ng/mL
